# assayedSystem: p110β/p85α (Homo sapiens, UniProt P42338)
# Sequence (P42338 whole entry): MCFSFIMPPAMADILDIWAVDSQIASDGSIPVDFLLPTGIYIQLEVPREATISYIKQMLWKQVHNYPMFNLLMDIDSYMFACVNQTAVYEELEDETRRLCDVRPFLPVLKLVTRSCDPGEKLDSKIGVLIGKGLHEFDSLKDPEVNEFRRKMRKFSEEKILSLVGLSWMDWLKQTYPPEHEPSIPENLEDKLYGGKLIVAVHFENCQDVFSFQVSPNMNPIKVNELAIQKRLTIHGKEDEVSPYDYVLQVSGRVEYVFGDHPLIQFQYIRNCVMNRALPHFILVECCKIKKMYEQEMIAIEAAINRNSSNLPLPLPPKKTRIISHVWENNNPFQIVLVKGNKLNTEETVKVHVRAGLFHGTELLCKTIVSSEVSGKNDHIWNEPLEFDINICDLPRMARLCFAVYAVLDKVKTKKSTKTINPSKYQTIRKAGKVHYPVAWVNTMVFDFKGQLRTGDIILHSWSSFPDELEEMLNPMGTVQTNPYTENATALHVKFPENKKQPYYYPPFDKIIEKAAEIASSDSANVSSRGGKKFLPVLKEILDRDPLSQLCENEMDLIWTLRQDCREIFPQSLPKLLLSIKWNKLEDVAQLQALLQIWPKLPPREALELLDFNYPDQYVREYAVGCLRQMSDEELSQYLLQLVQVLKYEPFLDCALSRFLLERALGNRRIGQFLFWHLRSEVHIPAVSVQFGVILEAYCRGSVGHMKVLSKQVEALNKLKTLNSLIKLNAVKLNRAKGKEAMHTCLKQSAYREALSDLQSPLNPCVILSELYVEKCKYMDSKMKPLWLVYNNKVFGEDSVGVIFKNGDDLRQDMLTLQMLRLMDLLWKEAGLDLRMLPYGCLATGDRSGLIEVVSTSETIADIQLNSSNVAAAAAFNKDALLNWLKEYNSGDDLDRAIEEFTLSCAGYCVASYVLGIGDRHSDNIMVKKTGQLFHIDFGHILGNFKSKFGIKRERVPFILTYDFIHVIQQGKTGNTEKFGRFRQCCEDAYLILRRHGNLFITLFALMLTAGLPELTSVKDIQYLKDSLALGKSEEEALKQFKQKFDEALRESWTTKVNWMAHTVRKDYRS
# Sequence (P27986 2-724 partner): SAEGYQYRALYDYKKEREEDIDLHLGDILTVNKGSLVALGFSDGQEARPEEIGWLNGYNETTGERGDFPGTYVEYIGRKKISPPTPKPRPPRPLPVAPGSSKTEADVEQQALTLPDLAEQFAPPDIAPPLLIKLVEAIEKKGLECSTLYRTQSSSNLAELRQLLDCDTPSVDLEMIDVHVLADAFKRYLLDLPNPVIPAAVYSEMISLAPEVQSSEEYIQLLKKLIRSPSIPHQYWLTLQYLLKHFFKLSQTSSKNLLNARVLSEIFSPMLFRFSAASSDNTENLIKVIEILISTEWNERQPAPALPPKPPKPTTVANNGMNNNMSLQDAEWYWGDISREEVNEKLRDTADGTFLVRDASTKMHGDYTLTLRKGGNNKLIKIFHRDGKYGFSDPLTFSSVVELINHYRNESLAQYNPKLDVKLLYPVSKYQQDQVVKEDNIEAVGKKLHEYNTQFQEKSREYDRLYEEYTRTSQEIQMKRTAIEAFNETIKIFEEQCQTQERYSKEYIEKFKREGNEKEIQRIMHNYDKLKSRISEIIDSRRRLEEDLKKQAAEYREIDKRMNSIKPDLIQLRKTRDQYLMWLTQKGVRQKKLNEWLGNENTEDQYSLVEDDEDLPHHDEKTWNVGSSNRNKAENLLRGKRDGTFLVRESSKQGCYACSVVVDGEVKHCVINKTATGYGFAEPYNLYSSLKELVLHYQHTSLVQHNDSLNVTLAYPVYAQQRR
# assayName: Transcreener KINASE Assay, kinase inhibition of p110β/p85α
# Type: biochemical
# testSettings: 1 uM test compound
Please go through the items and note down their PI3Kβ IH % @ 1 uM.
Numbers only, in %.

Hi team, please reply with PI3Kβ IH % @ 1 uM for each item in this list.
1. Nc1ccc(-c2c[nH]c3ncnc(N4CCOC[C@H]4c4nn5ccc(Cl)c5c(=O)n4-c4ccccc4)c23)cn1
2. COc1cccc(-n2c([C@@H]3CCN3c3ncnc(N)c3C#N)nn3ccc(Cl)c3c2=O)c1

Reply:
[16.8, 24.7]

Kindly give each listed record's PI3Kβ IH % @ 1 uM.
1. CC(Nc1ncnc2[nH]cc(C#N)c12)c1cn2ccc(Cl)c2c(=O)n1-c1cccc(F)c1 (stereo not shown) [Compound 277]
2. CC(=O)c1cnc(N)nc1N[C@@H](C)c1cc2ncc(Cl)n2c(=O)n1-c1ccccc1
3. C#Cc1cnc(N)nc1N1CCC[C@H]1c1nn2ccc(Cl)c2c(=O)n1-c1ccccc1
4. COCc1ccn2nc([C@@H]3CCCN3c3ncnc4[nH]cnc34)n(-c3ccccc3)c(=O)c12
5. Nc1ncc(-c2n[nH]c3ncnc(N4CC[C@H]4c4nn5ccc(Cl)c5c(=O)n4-c4ccccc4)c23)cn1

Reply:
1. 81.4
2. 95.8
3. 33.8
4. −35.9
5. 25.2
